Assay: NCI Yeast Anticancer Drug Screen. Data for the mlh1 rad18 strain (AID 175)
Details: S. cerevisiae mlh1 rad18 strain growth inhibition; at 50.0 µM; stronger effect = higher value
About 79,000 compounds went through this panel and 15% of them were active in at least one assay; those are over-represented in the sample as a whole.

molecule | value_units | growth inhibition
O=C(O)c1cccc(Cl)c1 | % | 8.2
O=C(NCC(O)CO)c1ccc(N(CCCl)CCCl)c([N+](=O)[O-])c1[N+](=O)[O-] (configuration not stated) | % | 17.1
COc1cc2c(cc1OC)C13CCN4CC5CCOC6CC(=O)N2C1C6C5CC43 (configuration not stated) | % | -72.3
CC(=O)Nc1cccc([As+](C)(C)C)c1 | % | 16.9
Nc1noc(N)n1 | % | -28.4
CCOC(=O)C(C[Si](C)(C)C)P(=O)(OCC)OCC (configuration not stated) | % | -33
C=C(C)[C@H]1Cc2c(ccc3c2O[C@@H]2COc4cc(OC)c(OC)cc4[C@@H]2C3=O)O1 | % | 52.8
COCC(=O)CP(=O)(OC)OC | % | 1.35
COc1ccc(C(OCC2OC(n3ccc(Oc4c(F)c(F)c(F)c(F)c4F)nc3=O)CC2OP(OCCC#N)N(C(C)C)C(C)C)(c2ccccc2)c2ccc(OC)cc2)cc1 (configuration not stated) | % | -2.65
CCC(CCl)NC(CC(C)C)CC(C)C (configuration not stated) | % | -10.8
Cc1cc(-c2ccccc2)cc(-c2ccccc2)[o+]1 | % | 4.25
O=NNc1ccc(C(F)(F)F)cn1 | % | -15.2
CC(I)C(N)=O (configuration not stated) | % | -17
COc1ccc(C(=O)OC2CC3CCC(C2)N3)cc1OC (configuration not stated) | % | 22.8
COc1ccc(C(CC(=O)O)CC(=O)N(CCCl)CCCl)cc1C (configuration not stated) | % | 24.4
[Cl][Hg][Cl].c1ccc(N=P(c2ccccc2)(c2ccccc2)c2ccccc2)cc1 | % | 99.6
COC(=O)C1(O)c2ccccc2N=C2C1CCN2C (configuration not stated) | % | 16.9

----------
Assay: NCI Yeast Anticancer Drug Screen. Data for the mlh1 rad18 strain (AID 175)
Details: S. cerevisiae mlh1 rad18 strain growth inhibition; at 50.0 µM; stronger effect = higher value
Compounds without any hit were thinned out: in the full panel of roughly 79,000, 15% have a hit.
Measured growth inhibition of individual entries
quantity_kind: growth inhibition (%)

molecule | assay_result
C[N+](C)=C(Cl)Cl | -12.9
O=C(O)Cc1ccc2c(c1)OCO2 | 23.6
O=C(Cc1ccccc1)OCC1CCCO1 (configuration not stated) | 10.5
CCOP(=O)(OCC)SC#N | 16.1
CCOP(=O)(Cc1ccc(N)cc1)OCC | -14.2
OC(c1ccccc1)C(Cl)(Cl)Cl (configuration not stated) | 3.55
COc1cc2c(cc1O)-c1c(OC)c(O)cc3c1C(C2)N(C)CC3 (configuration not stated) | -46.9
COP(=O)(OC)C1(c2ccccc2)C2C3CCC(C3)C21 (configuration not stated) | 17.8
CC(=O)OCC1OC(n2ncc3c(N4CC4)ncnc32)C(OC(C)=O)C1OC(C)=O (configuration not stated) | 4.25
N#CC(C#N)=Cc1ccccc1O | -9.7
CCN(CC)CC#N | -0.7
Nc1ccc(C(=O)N/N=C/c2ccc(N(CCBr)CCBr)cc2)cc1 | 54.2
C[n+]1ccc(/C=C\c2ccc(N(CCCl)CCCl)cc2)c2ccccc21 | 18.6
CCOC(=O)C(Br)CBr (configuration not stated) | 23.1
COc1cc2c(cc1O)CC1c3c(cc(O)c(OC)c3-2)CCN1C (configuration not stated) | 2.85
CN(C)C(=O)N(CCCl)N=O | 20.8
[N-]=[N+]=NC12CC3CC(CC(C3)C1)C2 | -20.2

----------
Assay: NCI Yeast Anticancer Drug Screen. Data for the mlh1 rad18 strain (AID 175)
Conditions: S. cerevisiae mlh1 rad18 strain growth inhibition; at 50.0 µM; stronger effect = higher value
This is part of a sample that, as a whole, favours compounds with a hit. Of some 79,000 tested, about 15% had one in any assay.

compound | growth inhibition, %
CCOP(=O)(OCC)Oc1ccc(S(C)=O)cc1 (stereo not drawn) | -0.25
CC(CCl)N1CCCCCC1 (stereo not drawn) | -6.8
COc1ccc2c(c[n+](C)c3c4cc5c(cc4ccc23)OCO5)c1OC | 0.6

----------
Test: NCI Yeast Anticancer Drug Screen. Data for the mec2-1 strain (AID 157)
Details: S. cerevisiae mec2-1 strain, at 50.0 µM, stronger effect = higher value
This is part of a sample that, as a whole, favours compounds with a hit. Of some 79,000 tested, about 15% had one in any assay. The source made the active and inactive calls. Rule as the data show it: active = growth inhibition above about 70%; inactive = the rest.
Measured growth inhibition of individual entries

molecule | growth inhibition
CC(C)=C=CP(=O)(O)c1ccccc1 | -24.1% (inactive)
COc1cccc(C2CC(=O)c3cccn32)c1 (stereo unspecified) | 1.65% (inactive)
O=C1OC(Br)c2ccccc21 (stereo unspecified) | -27.7% (inactive)
CN1CCCC1c1ccc[n+](C)c1 (stereo unspecified) | 1.85% (inactive)
CC[C@@H]1C[C@H]2CC3c4[nH]c5ccc(O)cc5c4CCN(C2)C31 | -24.4% (inactive)
C[As+](c1ccccc1)(c1ccccc1)c1cccc2ccccc12 | 38.9% (inactive)
C#CC1(OC(C)=O)CCC2C3CCC4=CC(=O)CCC4(C)C3CCC21C (stereo unspecified) | 6.1% (inactive)
CC1=CC23C(COC(=O)C24CO4)C(C(=O)O)=CC3C1C (stereo unspecified) | -19.7% (inactive)
O=NNc1cncc(NN=O)n1 | 1.1% (inactive)
NC(CCSCCF)C(=O)O (stereo unspecified) | 8.6% (inactive)
CCCCS(=O)CCC(N)P(=O)(O)O (stereo unspecified) | -54% (inactive)

----------
Experiment: NCI Yeast Anticancer Drug Screen. Data for the mec2-1 strain (AID 157)
Conditions: S. cerevisiae mec2-1 strain, at 50.0 µM
About 79,000 compounds went through this panel and 15% of them were active in at least one assay; those are over-represented in the sample as a whole. Calls of active or inactive are those of the source. No stated cut-off is given here; in the data, active means growth inhibition above about 70%; inactive means the rest.
Outcome codes: t (active), f (inactive)

compound | category_label
CS(=O)(=O)C(Cl)Cl | f
O=P(O)(O)SP(=O)(O)O.[Mn] | f
CN(C)C(=O)Oc1cc(O)cc([N+](=O)[O-])c1 | f
CCCCCSP(SCCCCC)c1ccccc1 | f
NC(=O)NNc1ccc([N+](=O)[O-])cc1[N+](=O)[O-] | f
CCCCCCP(=O)(O)O.[Zn+2] | f
C[N+](C)(C)CC1CCCC/C1=N\O (configuration not stated) | f
CC(=O)O[C@H]1CC[C@]2(C)[C@H]3CC[C@]4(C)[C@@H](OC(C)=O)CC[C@H]4[C@@H]3[C@H](C=O)[C@]2(O)C1 | f
CC(=O)CC(C)=O.CC(=O)CC(C)=O.CC(=O)CC(C)=O.CC(=O)CC(C)=O.[Zr] | f
c1cc2c(cc1[C@@H]1OC[C@@H]3[C@H]1CO[C@H]3c1ccc3c(c1)OCO3)OCO2 | f
O=P1(Oc2ccccc2)N(CCCl)CCN1c1ccccc1 (configuration not stated) | f
Nc1cccc2c1Cc1cc([N+](=O)[O-])ccc1-2 | f
CC(CN1NC12CCCC2)N1NC12CCCC2 (configuration not stated) | f
c1ccc(CCN2CCCCC2)cc1 | f
Cc1cc(C)c(C#N)c(SSC(Cl)(Cl)Cl)n1 | f
CC(C)CCC1C(=O)NC(=O)NC1=O | f
CC(C)=CCC/C(C)=N\N=C(N)N | f
O=C1CC(=O)NC(=S)N1 | f
COc1cc2c(cc1O)CNCC2c1ccc(O)c(C)c1 (configuration not stated) | f
O=[N+]([O-])c1cc(S(=O)(=O)F)cc(Cl)c1O | f
CC(=O)CP(=O)(O)O | f
[C-]#[O+].[C-]#[O+].[C-]#[O+].[C-]#[O+].[Cr].c1ccc([PH+](CC[PH+](c2ccccc2)c2ccccc2)c2ccccc2)cc1 | f
O=P(O)(O)CCc1ccccc1 | f
[CH-]=C([CH2-])C.[Ni][Br].c1ccc([PH+](c2ccccc2)c2ccccc2)cc1 | f
C[CH2][Sn]([I])([CH2]C)[CH2]C | t
[N-]=[N+]=NC12CC3CC(CC(C3)C1)C2 | f
CN(C)c1ccc(C=C2C(=O)NC(=O)NC2=O)cc1 | f

----------
Experiment: NCI Yeast Anticancer Drug Screen. Data for the sgs1 mgt1 strain (AID 161);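 further: 0% = growth of cultures given vehicle only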
Conditions: S. cerevisiae sgs1 mgt1 strain, at 50.0 µM, stronger effect = higher value
This is part of a sample that, as a whole, favours compounds with a hit. Of some 79,000 tested, about 15% had one in any assay.
Measured growth inhibition of individual entries
quantity_kind: growth inhibition (%)

molecule | value_units | assay_result
CNC(C)Cc1ccccc1OC (stereo not given) | % | -1.2
c1ccc2c(C3NCCc4[nH]cnc43)cccc2c1 (stereo not given) | % | -9.45
O=P1(N(CCCl)CCCl)NCCCO1 (stereo not given) | % | -6.1
CC1=CC(=O)[C@@H](O)[C@]2(C)[C@H]3[C@@]4(O)OC[C@]35[C@H]([C@@H](C)[C@H]4O)[C@@H](O)C(=O)O[C@@H]5C[C@@H]12 | % | 36
N#CNC(N)=S | % | -10.3
CC(C)N[C@@H]1CCC[C@H]1O | % | -17.1
CSP(N)(=O)OC(C)C (stereo not given) | % | -15.6
CC(=O)CC(C)=O.CC(=O)CC(C)=O.CC(=O)CC(C)=O.[La] | % | 12.2
C=Cn1nnnc1N | % | -10.3
O=[As]c1ccc2c(c1)NC(O)=CO2 (stereo not given) | % | 20.7
CC(=O)NC(CS)C(=O)[O-].CC(=O)NC(CS)C(=O)[O-].N.N.[Pt+4] (stereo not given) | % | 15.2
O=C1CN=C(c2ccccc2)c2cc(Cl)ccc2N1 | % | 3.35
CCC1(/C=C/C(C)C)C(=O)NC(=S)NC1=O | % | -0.8
CN(C)C(=O)Oc1ccc(Cl)cc1Cl | % | -5.8
C[C@@]1(C(=O)c2ccccc2)N(c2ccccc2)[C@@]1(C)C(=O)c1ccccc1 | % | 4.35
CC1CCNC(C)C1 (stereo not given) | % | -13.8
NNC(=O)c1ccccc1 | % | -11.8
FC(F)(F)C(OP(OC(C(F)(F)F)C(F)(F)F)OC(C(F)(F)F)C(F)(F)F)C(F)(F)F | % | 2.6
Cc1ccc(S(=O)(=O)Nc2cc(C)cc(CCN)c2C)cc1 | % | -14.6
CN1CN(c2ccccc2)C2(CCN(CCc3cc4ccccc4o3)CC2)C1=O | % | -12.8
NNC(=S)N/N=C(\C(=O)Nc1cccc(O)c1)C1C(=O)NC(=S)NC1=O | % | -13.7
Cc1cc(C)c(CCl)cc1CCl | % | 26.4
COc1cc2c(cc1OC)C13CCN4CC5=CCOC6CC(=O)N2C1C6C5CC43O (stereo not given) | % | -8.05
O=[N+]([O-])C(CO)CCCC(CO)[N+](=O)[O-] (stereo not given) | % | 5.65
NC(c1ccccc1)C(Cl)c1ccccc1 (stereo not given) | % | 3.15
CC(=O)OC[C@]12CCC(C)=C[C@H]1O[C@@H]1[C@H](O)[C@@H](OC(C)=O)[C@@]2(C)[C@@]12CO2 | % | 14.9
NC(N)=NC(N)=Nc1ccc(Cl)cc1 | % | 3.45
CCC(C(C)C)C1NC1C(C)C1CCC2C3CC=C4CC(OC(C)=O)CCC4(C)C3CCC12C (stereo not given) | % | 99.1
N#C[S-].N#C[S-].[Ni+2].c1ccc([PH+](c2ccccc2)c2ccccc2)cc1.c1ccc([PH+](c2ccccc2)c2ccccc2)cc1 | % | 50
O=C(CC(O)C(Cl)(Cl)Cl)CC(O)C(Cl)(Cl)Cl (stereo not given) | % | 10.2
